# System: Tov-21-G
# ASSAY_EXPLANATION: Primary qHTS to identify gynecologic anti-cancer compounds using libraries of approved drugs and bioactive compounds (AID 1345084); also: nearly all actives have a fitted effect of over 55% in size
# CONDITION_DETAILS: Gynecologic cancer cell panel viability, ATPlite luminescence, 48 h; series mostly up to 57.5 µM
Inconclusive results are not listed. Active and inactive are the calls of the source. Calls follow the shape of the dose curve; as a rule, active = well fitted cell-killing curve with a large enough effect; inconclusive = small, poorly fitted or top-dose-only effect, or effect the other way; inactive = flat fitted curve, though single readings scatter.
Could you please pick one outcome from this set? active, inactive

CCN(Cc1cc(Nc2nc(C)cn3c(-c4cn[nH]c4)cnc23)sn1)C(C)(C)CO    active
N[C@@H]1c2cccnc2[C@H](OC(=O)N2CCC(n3c(=O)[nH]c4ncccc43)CC2)CC[C@H]1c1cccc(F)c1F    inactive
CCOc1nc(NC(=O)Cc2cc(OC)ccc2OC)cc(N)c1C#N    inactive
Cc1cc(C)c2c(c1)C(N(Cc1cc(C(F)(F)F)cc(C(F)(F)F)c1)c1nnn(C)n1)CCCN2CC1CCC(C(=O)O)CC1 (stereo not given)    inactive
CCc1ccccc1OC[C@@H](O)CN[C@H]1CCCc2ccccc21    inactive
COc1ccc(C2Oc3c(OC)cc(CCCO)cc3C2COC2OC(CO)C(O)C(O)C2O)cc1OC (stereo not given)    inactive
CC1=CC2/C=C(\C)CCC3OC(C)(C)OC3CCC(=O)C23C(=O)NC(CC(C)C)C3C1C (stereo not given)    inactive
CC1(NC(=O)c2ccc(C#Cc3cccc(F)c3)cn2)COC1    inactive

Query string: What classification did O=C(c1cc(Cc2n[nH]c(=O)c3ccccc23)ccc1F)N1CCCNCC1 end up with in this test?
Result string: inactive

Query string: What classification did Cc1cccc(-c2[nH]ncc2-c2ccc(F)c(-c3cnn(CCO)c3)c2)n1 end up with in this test?
Result string: inactive

Query string: What classification did C=C1C(=O)OC2/C=C(/C)C3=CC(=O)C(C)(CC(OC(=O)/C(C)=C/COC(C)=O)C12)O3 (stereo not given) end up with in this test?
Result string: active

Query string: What classification did O=c1[nH]c([C@@H]2CCCN2)nc2c1oc1ccc(Cl)cc12 end up with in this test?
Result string: inactive

Query string: What classification did CC1(C)SCCN(S(=O)(=O)c2ccc(Oc3ccncc3)cc2)[C@H]1C(=O)NO end up with in this test?
Result string: inactive

Query string: What classification did O=C(Nc1ccc2[nH]c(=O)oc2c1)C(=O)N1CCC(Cc2ccc(F)cc2)CC1 end up with in this test?
Result string: inactive

Query string: What classification did CC(C)c1noc(C2CCN(c3ncnc(Nc4ccc(S(C)(=O)=O)cc4F)c3[N+](=O)[O-])CC2)n1 end up with in this test?
Result string: inactive

---

# TARGET_OF_ASSAY: Cytochrome P450 2C9 (Homo sapiens) (UniProt P11712)
# Sequence (P11712 whole entry, looked up): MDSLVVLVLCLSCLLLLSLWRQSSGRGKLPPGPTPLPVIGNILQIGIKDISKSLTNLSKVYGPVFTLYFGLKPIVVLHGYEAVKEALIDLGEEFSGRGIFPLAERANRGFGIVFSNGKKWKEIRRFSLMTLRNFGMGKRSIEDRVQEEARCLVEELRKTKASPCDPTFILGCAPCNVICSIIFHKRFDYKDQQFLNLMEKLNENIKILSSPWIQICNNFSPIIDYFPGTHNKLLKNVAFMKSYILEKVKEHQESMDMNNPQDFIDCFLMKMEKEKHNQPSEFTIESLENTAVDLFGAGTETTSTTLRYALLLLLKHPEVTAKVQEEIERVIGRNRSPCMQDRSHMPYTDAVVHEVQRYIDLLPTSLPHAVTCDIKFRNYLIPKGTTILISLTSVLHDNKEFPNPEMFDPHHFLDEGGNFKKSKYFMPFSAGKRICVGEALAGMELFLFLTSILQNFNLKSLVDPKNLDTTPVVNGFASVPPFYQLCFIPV
# ASSAY_EXPLANATION: Cytochrome P450 family 2 subfamily C member 9 (CYP2C9) small molecule antagonists: luciferase biochemical (cell-free) qHTS assay (AID 1645842); also: nearly all actives have a fitted effect of over 55% in size
# CONDITION_DETAILS: P450-Glo CYP2C9 enzyme assay, luciferin luminescence; series mostly up to 57.4 µM
Inconclusive results are not listed. Calls of active or inactive are those of the source. Calls follow the shape of the dose curve; as a rule, active = well fitted inhibition curve with a large enough effect in the repeat runs; inconclusive = weak or mixed curves; inactive = no such curve, though single readings can be large or run the other way.
Could you please pick one outcome from this set? yes (active), no (inactive)

Before answering, review these 2 worked examples.
COc1cccc(OCCCN)c1-c1cc(Nc2cnc(C#N)cn2)n[nH]1    no
COc1ccc2c(c1)C(C(=O)N(Cc1ccc(N(C)C)cc1)c1ccc(C(C)C)cc1)CCC2 (stereo not drawn)    yes

Continue with the compound presented below.
Query string: What classification did Cc1cc(C(C)Nc2ccccc2C(=O)O)c2nc(N3CCOCC3)cc(=O)n2c1 (stereo not drawn) end up with in this test?
Result string: yes

---

# ASSAY_EXPLANATION: Primary fluorescence-based thiol-reactive (MSTI) qHTS assay for identification of artifact compounds. (AID 1845221); also: nearly all actives have a fitted effect of over 65% in size
# CONDITION_DETAILS: MSTI thiol-reactivity probe, 1 h; series mostly up to 53.8 µM
Results filed as inconclusive are left out. Activity calls are given as the source filed them. Calls follow the shape of the dose curve; as a rule, active = well fitted inhibition curve with a large enough effect; inconclusive = small, poorly fitted or top-dose-only effect; inactive = no such curve, though single readings can be large or run the other way.
Could you please pick one outcome from this set? yes for active, no for inactive

Before answering, review these 5 worked examples.
COc1cc(C(C)=O)c(OC)c2c1OC(C)(C)C=C2    no
CCC(CC)C(c1ccc(Nc2nc3ccccc3s2)cc1)n1cncn1 (stereo not drawn)    no
Fc1ccc(CN2CCC(Nc3ccc(C(F)(F)F)nn3)CC2)cc1F    no
CCC(C)CNCC(=O)N1CCc2sccc2C1COc1cccc(C)c1 (stereo not drawn)    no
O=C(NCCO)c1cccc(-c2cc(Nc3ccc(OC(F)(F)F)cc3)ncn2)c1    no

Query string: What classification did O=C(COc1ccc2ccccc2c1Br)Nc1cccnc1 end up with in this test?
Result string: no

Query string: What classification did CN(C)C(=O)Nc1cccc(-c2ccc(N(C)C)cc2)c1 end up with in this test?
Result string: yes

Query string: What classification did CCOC(=O)c1ccc(OCCC2CCN(c3ccc(C)nn3)CC2)cc1 end up with in this test?
Result string: no

Query string: What classification did CCNC(=O)c1noc(-c2cc(Cl)c(O)cc2O)c1-c1ccc(OC)cc1 end up with in this test?
Result string: no

Query string: What classification did C=C(C)C1=C[C@@]2(C)C(=CC1=O)CC[C@@H](O)[C@@H]2C end up with in this test?
Result string: no

Query string: What classification did COc1c2c(c(C)c3c1C(=O)OC3)O[C@@]1(C)C[C@@H](OC(C)=O)[C@]34O[C@](OC)(CC[C@]3(C)[C@H]1C2)OC4(C)C end up with in this test?
Result string: no

---

# Z-AUC per record follows
# ASSAY_EXPLANATION: qHTS drug screen for cell cycle checkpoint inhibitors in PARPi-resistant BRCA-mutant ovarian cancer cell lines. (AID 1963452)
# CONDITION_DETAILS: PEO1/OlaR viability, CellTiter-Glo luminescence, 96 h; measured here: PEO4 Z-AUC; stronger effect = lower value

N#Cc1ccc(COC[C@H]2O[C@@H](n3c(NCc4ccc(Cl)c(Cl)c4)nc4c(N)ncnc43)[C@H](O)[C@@H]2O)cc1    0.0878
N#Cc1ccnc(Nc2cc(C3CCN(C4COC4)CC3)cc(N3CCC(F)(F)C3)n2)c1    0.109
COc1cc(N2CCC(N3CCN(C)CC3)CC2)ccc1Nc1ncc(Cl)c(Nc2ccccc2P(C)(C)=O)n1    -1.55

Query string: Look up Z-AUC for this compound: O=C1Nc2nc(-c3c(O)cccc3OCC3CC3)cc([C@@H]3CCCNC3)c2CO1
Result string: 0.451

Query string: Look up Z-AUC for this compound: O=C1NC(=O)C(c2cnc3ccccn23)=C1c1cn2c3c(cc(F)cc13)CN(C(=O)N1CCCCC1)CC2
Result string: -1.33

Query string: Look up Z-AUC for this compound: C[C@H](CN(C)C)Oc1nc(Nc2cc3cccc(Cl)c3cn2)cnc1C#N
Result string: -0.249

Query string: Look up Z-AUC for this compound: C=CCNC1=C2C[C@@H](C)C[C@H](OC)[C@H](O)[C@@H](C)/C=C(\C)[C@H](OC(N)=O)[C@@H](OC)/C=C\C=C(/C)C(=O)NC(=CC1=O)C2=O
Result string: -0.867

Query string: Look up Z-AUC for this compound: Cc1cccc(-c2[nH]ncc2-c2ccc(F)c(-c3cnn(CCO)c3)c2)n1
Result string: 1.13

Query string: Look up Z-AUC for this compound: CC#C[C@@H](CC(=O)O)c1ccc(OCc2cccc(-c3ccc(C(F)(F)F)cc3)c2)cc1
Result string: 0.882

Query string: Look up Z-AUC for this compound: COc1cc2c(cc1OCCCN1CCCC1)N=C(N)C21CCC1
Result string: -0.411

Query string: Look up Z-AUC for this compound: COc1ccc2nc3n[nH]c(C)c3c(NCCOCCO)c2c1
Result string: 0.00576

Query string: Look up Z-AUC for this compound: c1cc(-c2cnn3cc(-c4ccc(N5CCNCC5)cc4)cnc23)c2cccnc2c1
Result string: -1.83

Query string: Look up Z-AUC for this compound: O=C(Nc1ccnc(NC(=O)C2CC2)c1)c1c(Cl)cccc1Cl
Result string: -0.923

Query string: Look up Z-AUC for this compound: O=C([C@@H](Cc1cccc(C(F)(F)F)c1)NS(=O)(=O)c1cc(F)c2c(c1)CCNC2)N1CCCC1
Result string: -0.109

---

# ASSAY_EXPLANATION: Primary redox qHTS assay for identification of artifact compounds. (AID 1845223);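 also: 0% = DMSO and 100% = reference compound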
# CONDITION_DETAILS: Amplex Red/HRP redox cycling with DTT, fluorescence; series mostly up to 53.8 µM
Results filed as inconclusive are left out. Active and inactive are the calls of the source. Calls come from the whole dose curve; as a rule, active = well fitted activation curve with a large enough effect; inconclusive = small, poorly fitted or top-dose-only effect; inactive = flat fitted curve, though single readings scatter.
OBSERVED_PROPERTY: redox activity (% of DA3003)

CC1(NC(=O)c2ccc(C#Cc3cccc(F)c3)cn2)COC1    inactive
CN(C)c1ccnc2sc3c(=O)n(N4CCCCCC4)cnc3c12    inactive
COc1c(F)cccc1C(=O)N1C[C@@H](C)CC[C@H]1CNc1ccc(Br)cn1    inactive
CNS(=O)(=O)c1ccccc1Nc1nc(Nc2ccc(N3CCN(C)CC3)cc2OC)ncc1Br    inactive
CC(=O)O[C@H]1C[C@@](O)(C(C)C)[C@@H]2[C@@H](OC(=O)c3ccc(O)cc3)CC(C)=CC[C@@]12C    inactive
C=C1C(=O)OC2CC(C)C(CCC(C)=O)=CCC12 (stereo not given)    inactive
CC(C)c1c(O)ccc2c1CC[C@H]1C(C)(C)CCC[C@]21C    inactive
COc1ccc2nc(-c3cc(OC)c(OC)c(OC)c3)cc(C(=O)NCC(=O)Nc3ccc(C(C)=O)cc3)c2c1    inactive
CCN1CCC[C@@H]1CNC(=O)c1ccc2c(c1)NC(=O)c1cccc(C)c1S2    inactive
C=CC(C)(C)C12CC3C(=O)N4C(CC5(C(C)(C)C=C)c6ccccc6NC45)C(=O)N3C1Nc1ccccc12 (stereo not given)    inactive

Query string: Look up redox activity (% of DA3003) for this compound: C=C[C@@]12COC(=O)C(=C)[C@@H]1[C@@H](O)[C@H](C(=C)C(=O)OC)[C@@H](O)C2
Result string: inactive

Query string: Look up redox activity (% of DA3003) for this compound: C=C1C(=O)O[C@@H]2C[C@H](C)[C@@H]3CC(=O)[C@H](O)[C@@]3(C)C[C@H]12
Result string: inactive

Query string: Look up redox activity (% of DA3003) for this compound: NC(N)=NC(=O)c1cnn(-c2cccc3ncccc23)c1C1CC1
Result string: inactive

Query string: Look up redox activity (% of DA3003) for this compound: CCC(C)CC(=O)OC1C(=O)C(CO)=CC(O)C1C(C)C (stereo not given)
Result string: inactive

Query string: Look up redox activity (% of DA3003) for this compound: Cc1cc(C(=O)Cn2cc(C#N)ccc2=O)c(C)n1Cc1ccccc1
Result string: inactive
